Origin of measurements: patent US20120035206A1

# Test system: AS24391
# assay-method-text: In vitro anticancer MTT experiment
# Assay type: cell-based
# study-conditions: concentration 5 ug/ml, 48 h or 72 h, read-out: inhibition ratio AS24391
reported-metric: inhibition at 5 µg/mL (%)
Give the number; % is assumed, so skip it.

Reference set, count: 8
O=C1/C(=C/Cl)CSc2ccc(F)cc21 | 58.3
OC1/C(=C/Cl)SCc2ccccc21 (centres unmarked) | 49.8
O=C1/C(=C/Cl)CSc2ccc(Cl)cc21 | 46.2
Cc1cc2c(cc1F)SC/C(=C\Cl)C2=O | 59.8
O=C1/C(=C\Cl)CSc2sccc21 | 37
O=C1/C(=C/Br)CSc2ccc(F)cc21 | 46.9
Cc1ccc2c(c1)C(=O)/C(=C/Br)CS2 | 40
Cc1ccc2c(c1)C(=O)/C(=C/Cl)CS2 | 49.8

inhibition at 5 µg/mL measured on Cc1cc2c(cc1F)CS/C(=C\Br)C2=O = 57.8

inhibition at 5 µg/mL measured on O=C1/C(=C/Cl)SCc2ccccc21 = 36.6

inhibition at 5 µg/mL measured on Cc1cc2c(cc1F)SC/C(=C\Br)C2=O = 57

* * *

Below, each entry is listed alongside its reported inhibition at 5 µg/mL.
# System: HTB-131MDA-MB-453
# assay-method-text: In vitro anticancer MTT experiment
# Format: cell-based
# study-conditions: concentration 5 ug/ml, 48 h or 72 h, read-out: inhibition ratio HTB-131MDA-MB-453
Give the number; % is assumed, so skip it.

Reference set, count: 2
Cc1ccc(S/C=C2/CSc3ccc(F)cc3C2=O)cc1F | 53.5
O=C1/C(=C/Cl)CSc2sccc21 | 47.9

inhibition at 5 µg/mL measured on O=C1/C(=C/Cl)CSc2ccc(F)cc21 = 48.6

* * *

# Tested on: AS24391
# assay-method-text: In vitro anticancer MTT experiment
# Format: cell-based
# study-conditions: concentration 5 ug/ml, 48 h or 72 h, read-out: inhibition ratio AS24391
Below, each entry is listed alongside its reported inhibition at 5 µg/mL.
Entry format: amount then unit.

O=C1/C(=C/Cl)SCc2ccc(F)cc21 [Compound 15] | 46.8%

inhibition at 5 µg/mL measured on Cc1ccc(S/C=C2\CSc3ccc(F)cc3C2=O)cc1F [Compound 12] = 49%

inhibition at 5 µg/mL measured on O=C1/C(=C/Cl)CSc2sccc21 [Compound 19] = 53%

inhibition at 5 µg/mL measured on O=C1/C(=C/Br)CSc2ccc(Cl)cc21 [Compound 10] = 56.7%

inhibition at 5 µg/mL measured on Cc1ccc2c(c1)C(Cl)/C(=C/Cl)CS2 (centres unmarked) [Compound 28] = 72.3%

inhibition at 5 µg/mL measured on O=C1/C(=C\Cl)CSc2ccc(Cl)cc21 [Compound 21] = 60.3%

* * *

# System: SGC7901
# assay-method-text: In vitro anticancer MTT experiment
# Type: cell-based
# study-conditions: Homo sapiens, SGC-7901, concentration 5 ug/ml, 48 h or 72 h, read-out: inhibition ratio SGC7901
Range-based classes on measured inhibition at 5 µg/mL: L = under 50%, M = from 50% up to 60%, H = 60% and over

Answered examples (10):
O=C1/C(=C/Cl)SCc2ccc(F)cc21 [Compound 15] | L
O=C1/C(=C/Cl)CSc2ncccc21 [Compound 18] | L
OC1/C(=C/Cl)SCc2ccccc21 (stereo not shown) [Compound 20] | L
Cc1ccc2c(c1)C(=O)/C(=C/Cl)CS2 [Compound 5] | H
O=C1/C(=C/Br)CSc2ccc(Cl)cc21 [Compound 10] | M
Cc1cc2c(cc1F)SC/C(=C\Cl)C2=O [Compound 6] | L
Cc1ccc2c(c1)C(Cl)/C(=C/Cl)CS2 (stereo not shown) [Compound 28] | H
Cc1cc2c(cc1F)CS/C(=C\Br)C2=O [Compound 16] | M
O=C1/C(=C\Cl)CSc2sccc21 [Compound 24] | L
O=C1/C(=C/Cl)CSc2sccc21 [Compound 19] | M

Pending compound:
Kindly identify the class of Cc1ccc(SC2/C(=C/Cl)CSc3ccc(C)cc32)cc1 (stereo not shown) [Compound 29] .
L
